Give pKd for every item shown.
Target: T1, soluble human CD3 epsilon chain (human, UniProt P07766 23-126)
T1 construct: also called CD3ε
T1 sequence (P07766 23-126 limits assumed): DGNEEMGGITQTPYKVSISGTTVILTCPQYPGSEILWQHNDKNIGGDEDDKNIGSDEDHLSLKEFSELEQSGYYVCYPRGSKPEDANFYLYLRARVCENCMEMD
Experiment: SPR
Numbers only, as −log10 of the molar value.

TR01H021-E22Hh/none-Hi-Kn010G3/L0000-k0 (antibody, V domains shown, one-arm) VH: QVQLVESGGGLVQPGRSLRLSCAASGFTFSNAWMHWVRQAPGKGLEWVAQIKGKSNNYATYYAESVKGRFTISRADSKNSIYLQMNSLKTEDTAVYYCRYVHYSASYGVDAWGQGTTVTVSS VL: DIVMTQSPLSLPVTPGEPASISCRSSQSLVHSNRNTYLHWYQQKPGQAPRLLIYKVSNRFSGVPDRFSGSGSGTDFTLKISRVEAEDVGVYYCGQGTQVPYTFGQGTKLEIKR: 7.09

Could you report pKd for every entry in the following list?
1. TR01H109-E22Hh/none-Hi-Kn010G3/L0011-k0 (antibody, V domains shown, one-arm) VH: QVQLVESGGGLVQPGRSLRLSCAASGFTFSNAWMHWVRQAPGKGLEWVAQIKDKSQNYATYVAESVKGRFTISRDDSKNSLYLQMNSLKTEDTAVYYCRYVHYAAGYGVDAWGQGTTVTVSS VL: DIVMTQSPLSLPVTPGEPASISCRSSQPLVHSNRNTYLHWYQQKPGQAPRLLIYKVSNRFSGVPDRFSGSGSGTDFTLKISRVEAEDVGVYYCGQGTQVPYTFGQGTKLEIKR
2. TR01H082-E22Hh/none-Hi-Kn010G3/TR01L017-k0 (antibody, V domains shown, one-arm) VH: QVQLVESGGGLVQPGRSLRLSCAASGFTFSNAWMHWVRQAPGKGLEWVAQIKDKSQNYATYYAESVKGRFTISRDDSKNSLYLQMNSLKTEDTAVYYCRYVHYAAGYGVDAWGQGTTVTVSS VL: DIVMTQSPLSLPVTPGEPASISCRSSQSPVHSNRNTYIQWYLQKPGQSPQLLIYKVSNRFSGVPDRFSGSGSGTDFTLKISRVEAEDVGVYYCYQGTQVPYTFGQGTKLEIK

1: 7.15; 2: 6.96
